Data credit: the supplement of paper PMC10567573

B1: PLAGL1 (parent)
chain: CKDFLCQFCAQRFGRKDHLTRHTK

Variants of: B1
Test: protein stability index of a GFP-peptide fusion (GPS, HEK-293T) (PSI 1-6); higher = more stable;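 further: lentivirally expressed fusions sorted by FACS into six bins by GFP to DsRed ratio, PSI derived from sequencing read proportions per bin multiplied by bin number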
Settings: c terminus: a fixed tail appended
Recorded Endpoint: protein stability index
Give the figure by itself; no unit, no explanation.

Look over these answered cases.
> print(dat)
   mutation.spec  value
1           D17Q   1.92
2           A10N   1.96
3            F8P   2.47
4            C9N   2.58
5           G14I   2.08

If you can, please state the reported protein stability index value of G14Q .
1.98

// lookup protein stability index for R12A
1.97

Can you share its protein stability index? I mean this variant: G14D
2.14

Look up protein stability index: D3L
1.86

Requested read-out: protein stability index. Entry: Q11T
1.75

Please report the recorded protein stability index for H22M .
2.12

Any idea what protein stability index was measured for G14M ?
2.59

What value of protein stability index has been recorded for this entry: Q11N
2.01

I would be grateful if you could share the reported protein stability index for T23E .
1.68
